All figures here come from paper PMC12040169.

EXPERIMENTAL DETAILS: in vitro
PROTOCOL CONDITIONS: human, hela cells, % viability
Parameter: viability at 28.5 h, 10 µM. Scope: all listed entries.

COMPOUND: CN1C(c2ccccc2)=NO[C@]1(C)c1ccccc1
MEASURED PROPERTY: viability at 28.5 h, 10 µM
OBSERVED: 90%

COMPOUND: COC(=O)c1cc(-c2ccccc2OCc2ccccc2)ccc1NC(=O)c1ccc(Cl)cc1Cl
MEASURED PROPERTY: viability at 28.5 h, 10 µM
OBSERVED: 88.5%

Query: Item Cc1ccc2cc(C(=O)N3CCCCC3CN3CCOCC3)[nH]c2c1 (stereo not shown) : provide viability at 28.5 h, 10 µM
Result: 90.4%

Query: Item COc1ccc(C(=O)NC(=S)Nc2ccc(N3CCN(C)CC3)cc2)cc1[N+](=O)[O-] [CBK266098C] : provide viability at 28.5 h, 10 µM
Result: 89%

Query: Item Cc1ccccc1Nc1nc(N)nc(CN2CCN(C)CC2)n1 : provide viability at 28.5 h, 10 µM
Result: 89.9%

Query: Item Cc1cc(C)cc(CC(C)Cc2nc3ccccc3[nH]2)c1 (stereo not shown) : provide viability at 28.5 h, 10 µM
Result: 92.3%

Query: Item O=C(O)CCC(=O)NCC1OCCc2ccccc21 (stereo not shown) : provide viability at 28.5 h, 10 µM
Result: 89%

Query: Item Cc1ccccc1OCC1CCCN(C(=O)C2CC(=O)OC2(C)C)C1 (stereo not shown) : provide viability at 28.5 h, 10 µM
Result: 92.7%

Query: Item O=C(NC1CC2(CCOCC2)Oc2ccccc21)c1cccs1 (stereo not shown) : provide viability at 28.5 h, 10 µM
Result: 85.6%

Query: Item COC(=O)Cc1c(O)nn(C)c1Cc1cccc(C(F)(F)F)c1 : provide viability at 28.5 h, 10 µM
Result: 99.5%

Query: Item O=C(Cc1cccc2ccccc12)Nc1cc(C(=O)O)cc(C(=O)O)c1 : provide viability at 28.5 h, 10 µM
Result: 94.4%

Query: Item O=C(O)CCc1c(-c2ccccc2)cc2ccccn12 : provide viability at 28.5 h, 10 µM
Result: 109%

Query: Item CC(CNC1CCCC1)C(O)(c1ccccc1)c1ccccc1 (stereo not shown) [CBK012237C] : provide viability at 28.5 h, 10 µM
Result: 101%

Query: Item Cc1ccc(OCC(=O)Nc2cccnc2)c(-n2nc3ccccc3n2)c1 : provide viability at 28.5 h, 10 µM
Result: 90.9%

Query: Item Oc1nsnc1-c1ccccc1 : provide viability at 28.5 h, 10 µM
Result: 95%
